Recorded pIC50 for the following compounds
Target: recombinant human NSD2 (Homo sapiens (Human), UniProt O96028)
Sequence (O96028 2-1365 limits assumed): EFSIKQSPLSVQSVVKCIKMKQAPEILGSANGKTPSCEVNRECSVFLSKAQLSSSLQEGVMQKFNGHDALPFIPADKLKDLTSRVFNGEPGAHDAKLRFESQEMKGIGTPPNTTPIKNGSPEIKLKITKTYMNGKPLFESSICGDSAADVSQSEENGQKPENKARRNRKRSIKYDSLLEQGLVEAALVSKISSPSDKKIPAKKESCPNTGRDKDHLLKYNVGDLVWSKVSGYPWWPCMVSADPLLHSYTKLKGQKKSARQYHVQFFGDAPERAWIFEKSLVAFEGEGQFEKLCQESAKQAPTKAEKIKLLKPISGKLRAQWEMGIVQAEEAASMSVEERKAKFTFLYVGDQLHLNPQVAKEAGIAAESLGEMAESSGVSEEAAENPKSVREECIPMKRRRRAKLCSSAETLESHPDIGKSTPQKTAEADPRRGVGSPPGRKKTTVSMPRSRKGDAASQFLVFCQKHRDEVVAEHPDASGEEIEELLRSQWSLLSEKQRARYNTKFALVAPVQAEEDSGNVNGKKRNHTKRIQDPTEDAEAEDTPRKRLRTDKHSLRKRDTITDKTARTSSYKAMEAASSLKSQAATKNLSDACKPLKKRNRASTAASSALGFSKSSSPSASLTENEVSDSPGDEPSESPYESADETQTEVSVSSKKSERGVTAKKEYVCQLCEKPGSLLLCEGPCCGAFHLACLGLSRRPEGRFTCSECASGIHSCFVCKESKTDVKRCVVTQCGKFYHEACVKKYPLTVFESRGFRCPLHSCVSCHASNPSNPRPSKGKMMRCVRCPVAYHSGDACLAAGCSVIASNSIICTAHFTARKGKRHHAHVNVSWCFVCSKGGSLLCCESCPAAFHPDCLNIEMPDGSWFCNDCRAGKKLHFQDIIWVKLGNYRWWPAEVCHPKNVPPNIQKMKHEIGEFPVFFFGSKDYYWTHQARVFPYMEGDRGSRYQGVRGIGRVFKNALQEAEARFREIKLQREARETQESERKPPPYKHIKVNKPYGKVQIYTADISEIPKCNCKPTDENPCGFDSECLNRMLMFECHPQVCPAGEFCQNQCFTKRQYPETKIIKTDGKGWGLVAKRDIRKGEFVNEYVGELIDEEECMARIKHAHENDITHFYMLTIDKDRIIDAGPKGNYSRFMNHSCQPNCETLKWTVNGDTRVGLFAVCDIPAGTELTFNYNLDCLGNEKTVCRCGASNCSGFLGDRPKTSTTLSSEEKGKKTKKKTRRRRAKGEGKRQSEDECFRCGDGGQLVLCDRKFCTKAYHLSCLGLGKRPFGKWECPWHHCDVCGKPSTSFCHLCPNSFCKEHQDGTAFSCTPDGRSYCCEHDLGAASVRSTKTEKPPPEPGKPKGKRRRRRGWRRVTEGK
Assay: NSD2 inhibitory activity, modified RBC HotSpot HMT Assay (3H-SAM, oligonucleosome substrate)
Details: recombinant human NSD2 (2 nM), chicken oligonucleosomes 0.05 mg/ml, 3H-SAM 1 μM, 1 hour at 30° C.
pIC50: −log10 of the molar value.

Which pIC50 value belongs to `COc1cc(F)c(-c2ccc(N3CCC[C@](N)([C@H](O)C(F)F)C3)c(Cn3cnc4c(N)ncnc43)n2)cc1F` ?
< 6.00

Repeat for the following compound: `COc1cc(F)c(-c2ccc(N3CCC[C@](N)([C@H](O)C(F)F)C3)c(Cn3cnc4c(N)ncnc43)c2)cc1F`
8.00 to 9.00

Now for a further compound.
Which pIC50 value belongs to `COc1cc(F)c(-c2cnc(N3CCC[C@](N)([C@H](O)C(F)F)C3)c(Cn3cnc4c(N)ncnc43)c2)cc1F` ?
6.00 to 8.00
